- TARGET_ENTITY: mouse RORγ (Mus musculus, UniProt P51450)
- Construct: mouse, NM_011281.2 and from Ile251 to Lys516; expressed in transfected cells; host or cells: CHO cells (transient co-transfection with pG5-Luc reporter)
- Sequence (P51450 251-516): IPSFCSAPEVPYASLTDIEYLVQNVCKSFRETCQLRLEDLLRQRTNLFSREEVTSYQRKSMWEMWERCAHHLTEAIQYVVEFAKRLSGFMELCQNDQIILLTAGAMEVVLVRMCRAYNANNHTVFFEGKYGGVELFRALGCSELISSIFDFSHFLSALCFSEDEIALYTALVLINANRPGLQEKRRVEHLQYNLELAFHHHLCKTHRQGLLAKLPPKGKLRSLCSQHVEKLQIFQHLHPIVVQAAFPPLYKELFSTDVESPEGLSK
- EXPERIMENT_NOTES: Luciferase reporter gene assay of inhibitory effect against RORγ transcriptional activity (GAL4-mRORγ plasmid in CHO cells)
- Type: cell-based
- SETTINGS: read-out: LUC EC50 (μM) mRORg
MEASUREMENT_KIND: EC50

> print(dat)
                                   compound  reported.measurement
1  CC(C)CCc1nnc(CCC(=O)Nc2ccccc2C(C)C)n1C1CC1                > 3 µM
2  Cc1c(Cl)cccc1NC(=O)CCc1nnc(CC[C@H]2CC[C@H](C(F)(F)F)CC2)n1C1CC1                > 3 µM
3  CC(=O)N1C[C@H](C(=O)Nc2ccc(C)cc2C)[C@@H](c2nnc(CC3CC(C)(C)C3)n2C2CC2)C1 (racemic)                < 3 µM

Inquiry: Could you tell me which EC50 is on file for CC(=O)N1CC([C@H](CC(=O)Nc2ccc(C)cc2C)c2nnc([C@H]3C[C@@H](CC(C)C)C3)n2C2CC2)C1 ?
Reply text: > 3 µM

Inquiry: Could you tell me which EC50 is on file for CCn1c(CCC(=O)Nc2ccccc2)nnc1C1Cc2ccccc2C1 ?
Reply text: > 3 µM

Inquiry: Could you tell me which EC50 is on file for Cc1ccc(NC(=O)C[C@H](CCC(=O)O)c2onc(-c3cc(C(F)(F)C(C)(C)C)on3)c2C2CC2)c(Cl)c1 ?
Reply text: < 3 µM

Inquiry: Could you tell me which EC50 is on file for Cc1ccc(NC(=O)C[C@@H](c2nnc(CCCC(C)(C)C)n2C2CC2)N2CCCC2=O)c(C)c1 ?
Reply text: < 3 µM

---

- TARGET_ENTITY: human RORγ (Homo sapiens, UniProt P51449)
- Construct: human, NM_005060.3 and from Ser253 to Lys518; expressed in transfected cells; host or cells: CHO cells (transient co-transfection with pG5-Luc reporter)
- Sequence (P51449 253-518): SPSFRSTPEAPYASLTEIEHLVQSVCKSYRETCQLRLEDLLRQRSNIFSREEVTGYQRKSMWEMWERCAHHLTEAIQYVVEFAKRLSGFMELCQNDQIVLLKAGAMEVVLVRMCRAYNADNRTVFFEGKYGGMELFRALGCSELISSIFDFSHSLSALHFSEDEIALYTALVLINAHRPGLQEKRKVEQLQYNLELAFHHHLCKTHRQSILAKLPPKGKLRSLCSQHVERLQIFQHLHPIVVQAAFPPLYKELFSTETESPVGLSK
- EXPERIMENT_NOTES: Luciferase reporter gene assay of inhibitory effect against RORγ transcriptional activity (GAL4-hRORγ plasmid in CHO cells)
- Type: cell-based
- SETTINGS: read-out: LUC EC50 (μM) hRORg
The compounds listed here are annotated with their EC50.

// solved cases for EC50 follow
> print(dat)
                                   compound  reported.measurement
1  O=C(O)CC[C@@H](CC(=O)Nc1ccc(Cl)cc1F)c1noc(-c2cc(C3CCCC3)on2)c1C1CC1 [Example E-59]                < 3 µM
2  Cc1ccc(NC(=O)CCc2nnc(CCC3CCCCC3)n2[C@@H]2C[C@H]2C)c(C)c1 (racemic) [Example F-141]                > 3 µM
3  CC(=O)N1CC[C@H](C(=O)Nc2ccc(C)cc2C)[C@H]1c1nnc(CCC2CCCCC2)n1C1CC1 [Example F-227]                < 3 µM

Next, consider the following compound.
Inquiry: Could you tell me which EC50 is on file for CCc1cccc(NC(=O)CCc2nnc(CCC(C)C)n2C2CC2)c1C [Example F-147] ?
Reply text: > 3 µM
